Parameter: Kd. Scope: all listed entries.
target: integrin α5β1 (Homo sapiens, UniProt P05556+P08648); test: Target affinity test by surface plasmon resonance (SPR), integrin α5β1; type: binding; settings: SPR (Biacore T200), CM5 chip, 25° C., KD=Kd/Ka
Sequence (P08648 42-995 limits assumed): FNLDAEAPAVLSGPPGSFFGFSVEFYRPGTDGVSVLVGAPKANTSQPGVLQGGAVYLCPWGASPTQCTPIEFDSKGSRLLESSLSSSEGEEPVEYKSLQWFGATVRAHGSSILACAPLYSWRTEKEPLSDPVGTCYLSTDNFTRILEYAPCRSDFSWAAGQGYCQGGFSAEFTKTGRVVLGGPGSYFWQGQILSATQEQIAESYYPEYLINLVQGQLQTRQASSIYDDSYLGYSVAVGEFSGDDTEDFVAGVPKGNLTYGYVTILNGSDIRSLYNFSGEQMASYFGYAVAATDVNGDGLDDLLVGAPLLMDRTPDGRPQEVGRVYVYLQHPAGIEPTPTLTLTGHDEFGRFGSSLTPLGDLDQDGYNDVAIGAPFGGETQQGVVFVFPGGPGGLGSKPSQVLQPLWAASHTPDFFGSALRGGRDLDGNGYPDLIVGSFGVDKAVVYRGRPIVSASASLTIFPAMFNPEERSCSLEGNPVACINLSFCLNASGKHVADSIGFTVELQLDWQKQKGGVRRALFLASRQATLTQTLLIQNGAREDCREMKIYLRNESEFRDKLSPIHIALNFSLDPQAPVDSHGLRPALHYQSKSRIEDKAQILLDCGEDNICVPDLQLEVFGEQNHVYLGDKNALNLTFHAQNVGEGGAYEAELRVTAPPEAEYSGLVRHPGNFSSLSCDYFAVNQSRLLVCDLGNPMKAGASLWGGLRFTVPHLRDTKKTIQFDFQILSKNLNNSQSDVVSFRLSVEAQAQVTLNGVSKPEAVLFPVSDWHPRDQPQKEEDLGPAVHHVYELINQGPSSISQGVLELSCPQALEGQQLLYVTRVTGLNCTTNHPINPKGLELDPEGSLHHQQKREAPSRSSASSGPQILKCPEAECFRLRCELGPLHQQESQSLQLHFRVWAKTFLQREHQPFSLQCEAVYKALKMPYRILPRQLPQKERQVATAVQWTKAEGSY
Sequence (P05556 21-728 limits assumed): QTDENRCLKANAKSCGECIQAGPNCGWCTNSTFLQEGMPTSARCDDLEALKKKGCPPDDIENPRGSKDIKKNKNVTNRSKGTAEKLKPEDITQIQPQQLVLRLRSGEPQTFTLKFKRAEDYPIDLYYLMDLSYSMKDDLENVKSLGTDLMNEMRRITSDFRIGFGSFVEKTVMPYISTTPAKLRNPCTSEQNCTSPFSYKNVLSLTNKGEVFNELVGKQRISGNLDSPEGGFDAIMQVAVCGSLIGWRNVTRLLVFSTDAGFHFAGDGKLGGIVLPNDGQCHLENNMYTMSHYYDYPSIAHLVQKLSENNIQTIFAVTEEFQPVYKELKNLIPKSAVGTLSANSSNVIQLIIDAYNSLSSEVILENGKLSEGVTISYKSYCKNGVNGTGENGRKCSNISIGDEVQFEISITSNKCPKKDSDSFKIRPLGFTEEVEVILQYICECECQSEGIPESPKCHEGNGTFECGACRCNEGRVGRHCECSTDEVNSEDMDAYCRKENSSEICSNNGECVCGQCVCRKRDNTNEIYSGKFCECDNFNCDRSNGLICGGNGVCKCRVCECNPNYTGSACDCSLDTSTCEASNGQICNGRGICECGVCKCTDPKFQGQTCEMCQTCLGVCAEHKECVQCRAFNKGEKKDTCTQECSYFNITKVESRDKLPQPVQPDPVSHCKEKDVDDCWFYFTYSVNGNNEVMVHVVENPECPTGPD
Non-standard residues stand in square brackets, D forms with d. Residues, ends and D or L forms follow the SMILES beside them. ξ: configuration not given here. *: point of attachment. DOTA = O=C(O)CN1CCN(CC(=O)O)CCN(CC(=O)*)CCN(CC(=O)O)CC1; NOTA = O=C(O)CN1CCN(CC(=O)O)CCN(CC(=O)*)CC1; PEG4 = NCCOCCOCCOCCOCCC(=O)O; ξIle = CC[C@H](C)C(N)C(=O)O; Pip = O=C(O)[C@@H]1CCCCN1; ξN = NC(=O)CC(N)C(=O)O; AEEA = NCCOCCOCC(=O)O; Aib = CC(C)(N)C(=O)O; AEA = NCCOCC(=O)O
Kindly answer with a numeric value in nM, unit omitted.

These recorded examples may help you get a feel for the data.
CC[C@H](C)[C@H](NC(=O)[C@@H]1CCCCN1C(=O)[C@H](CC(=O)O)NC(=O)[C@H](CC(N)=O)NC(=O)CN1CCN(CC(=O)O)CCN(CC(=O)O)CCN(CC(=O)O)CC1)C(=O)NC(CC(N)=O)C(=O)O (stereo partly shown) [TM9] ({DOTA}-ND[Pip]I[ξN]-OH) :: 5.58
CC[C@H](C)[C@H](NC(=O)[C@@H](NC(=O)[C@H](CC(=O)O)NC(=O)[C@H](CC(N)=O)NC(=O)CN1CCN(CC(=O)O)CCN(CC(=O)O)CCN(CC(=O)O)CC1)C(C)C)C(=O)N[C@@H](CC(N)=O)C(=O)O [TM4, DOTA-Asn-Asp-Val-Ile-Asn-OH] ({DOTA}-NDVIN-OH) :: 16
CC[C@H](C)C(NC(=O)[C@@H](NC(=O)[C@H](CC(=O)O)NC(=O)[C@H](CC(=O)O)NC(=O)CNC(=O)[C@H](CCCNC(=N)N)NC(=O)CN1CCN(CC(=O)O)CCN(CC(=O)O)CC1)C(C)C)C(=O)N[C@@H](CC(N)=O)C(=O)N[C@@H](Cc1ccccc1)C(=O)O (stereo partly shown) [TM3] ({NOTA}-RGDDV[ξIle]NF-OH) :: 1.92
CC[C@H](C)C(NC(=O)[C@@H](NC(=O)[C@H](CC(=O)O)NC(=O)[C@H](CC(N)=O)NC(=O)COCCOCCNC(=O)CN1CCN(CC(=O)O)CCN(CC(=O)O)CCN(CC(=O)O)CC1)C(C)C)C(=O)N[C@@H](CC(N)=O)C(=O)O (stereo partly shown) [TM14] ({DOTA-AEEA}-NDV[ξIle]N-OH) :: 9.43
CC[C@H](C)[C@H](NC(=O)[C@@H](NC(=O)[C@H](CC(=O)O)NC(=O)[C@H](CC(N)=O)NC(=O)CCOCCOCCOCCOCCNC(=O)CN1CCN(CC(=O)O)CCN(CC(=O)O)CCN(CC(=O)O)CC1)C(C)C)C(=O)N[C@@H](CC(N)=O)C(=O)O [TM5] ({DOTA-PEG4}-NDVIN-OH) :: 2.77

(Q) Can you look up the measured Kd of CC[C@H](C)[C@H](NC(=O)[C@@H](NC(=O)[C@H](CC(=O)O)NC(=O)[C@H](CC(N)=O)NC(=O)COCCNC(=O)CN1CCN(CC(=O)O)CCN(CC(=O)O)CCN(CC(=O)O)CC1)C(C)C)C(=O)N[C@@H](CC(N)=O)C(=O)O [TM13] ({DOTA-AEA}-NDVIN-OH) for me?
(A) 1450

(Q) Can you look up the measured Kd of CC[C@H](C)[C@H](NC(=O)[C@@H](NC(=O)[C@H](CC(=O)O)NC(=O)[C@H](CC(N)=O)NC(=O)[C@H](CC(=O)O)NC(=O)CNC(=O)[C@H](CCCNC(=N)N)NC(=O)CN1CCN(CC(=O)O)CCN(CC(=O)O)CCN(CC(=O)O)CC1)C(C)C)C(=O)N[C@@H](CC(N)=O)C(=O)O [TM6] ({DOTA}-RGDNDVIN-OH) for me?
(A) 239

(Q) Can you look up the measured Kd of CC[C@H](C)[C@H](NC(=O)[C@@H](NC(=O)[C@H](CC(=O)O)NC(=O)[C@H](CC(N)=O)NC(=O)[C@H](CC(=O)O)NC(=O)CNC(=O)[C@H](CCCNC(=N)N)NC(=O)CCOCCOCCOCCOCCNC(=O)CN1CCN(CC(=O)O)CCN(CC(=O)O)CCN(CC(=O)O)CC1)C(C)C)C(=O)N[C@@H](CC(N)=O)C(=O)O [TM7] ({DOTA-PEG4}-RGDNDVIN-OH) for me?
(A) 43.9

(Q) Can you look up the measured Kd of CC[C@H](C)[C@H](NC(=O)C(C)(C)NC(=O)[C@H](CC(=O)O)NC(=O)[C@H](CC(N)=O)NC(=O)CN1CCN(CC(=O)O)CCN(CC(=O)O)CCN(CC(=O)O)CC1)C(=O)N[C@@H](CC(N)=O)C(=O)O [TM11] ({DOTA}-ND[Aib]IN-OH) for me?
(A) 0.0681

(Q) Can you look up the measured Kd of CC[C@H](C)C(NC(=O)[C@@H](NC(=O)[C@H](CC(=O)O)NC(=O)[C@H](CC(N)=O)NC(=O)[C@H](CC(=O)O)NC(=O)CNC(=O)[C@H](CCCNC(=N)N)NC(=O)COCCNC(=O)CN1CCN(CC(=O)O)CCN(CC(=O)O)CCN(CC(=O)O)CC1)C(C)C)C(=O)N[C@@H](CC(N)=O)C(=O)O (stereo partly shown) [TM15] ({DOTA-AEA}-RGDNDV[ξIle]N-OH) for me?
(A) 0.992
